system: zebrafish Peroxisome Proliferator-activated Receptor gamma (PPARg), gene 557037; test: ATG_zfPPARg_XSP1: Attagene TRANS-FACTORIAL Multi-Species (XSP1) HepG2 Assay for zebrafish Peroxisome Proliferator-activated Receptor gamma (PPARg) (AID 2283801)
Results filed as inconclusive are left out. Activity calls are given as the source filed them. Rule for the calls: active = hit-call score of the fitted dose curve at least 0.9, where 1 is the maximum; inconclusive = response in the unintended direction; inactive = score below 0.9.
Mark one answer only. Choices: active, inactive

[
  {
    "SMILES_CODE": "CCCCOC(=O)c1ccccc1C(=O)OCc1ccccc1",
    "CLASS_NAME": "inactive"
  },
  {
    "SMILES_CODE": "CCCCCOC(=O)c1ccccc1C(=O)OCCCCC",
    "CLASS_NAME": "inactive"
  },
  {
    "SMILES_CODE": "Clc1ccc(C(c2ccc(Cl)cc2)C(Cl)(Cl)Cl)cc1",
    "CLASS_NAME": "active"
  }
]

Then this compound:
Check the results log: what was the call for Clc1ccc(C(c2ccc(Cl)cc2)C(Cl)Cl)cc1 ? inactive

----------
read-out: Lipoprotein lipase (LPL), LPL (gene 4023); test: LTEA_HepaRG_LPL: Life Technologies and Expression Analysis (LTEA) Assay for Lipoprotein lipase (LPL) using HepaRG (AID 2283515); conditions: mRNA level, 48 h; actives raise or lower the signal
Active and inactive are the calls of the source. How the source made its calls: active means hit-call score of the fitted dose curve at least 0.9, where 1 is the maximum; inactive means score below 0.9.
Mark one answer only. Choices: active, inactive

Would you please look over these solved cases?
[
  {
    "SMILES_CODE": "CCCCCCCCOC(=O)c1ccc(C(=O)OCCCCCCCC)c(C(=O)OCCCCCCCC)c1",
    "CLASS_NAME": "inactive"
  },
  {
    "SMILES_CODE": "CN(C)C(=O)Nc1ccc(Cl)cc1",
    "CLASS_NAME": "inactive"
  },
  {
    "SMILES_CODE": "CC(C)(C)OOC(C)(C)CCC(C)(C)OOC(C)(C)C",
    "CLASS_NAME": "inactive"
  }
]

Check the results log: what was the call for CCCSC(=O)N(CCC)CCC ? inactive

Check the results log: what was the call for Nc1ccc(N=Nc2ccccc2)cc1 ? active

Check the results log: what was the call for Oc1ccccc1Cl ? inactive

Check the results log: what was the call for C1=Cc2cccc3cccc1c23 ? inactive

Check the results log: what was the call for CC(C)N(Cc1ccccc1)C(=O)C(C)(C)C ? inactive

Check the results log: what was the call for Nc1ccc(Oc2ccc(N)cc2)cc1 ? inactive

Check the results log: what was the call for CCNS(=O)(=O)C(F)(F)C(F)(F)C(F)(F)C(F)(F)C(F)(F)C(F)(F)C(F)(F)C(F)(F)F ? inactive

Check the results log: what was the call for Oc1ccc2ccc3cccc4ccc1c2c34 ? inactive

Check the results log: what was the call for CCCCCOC(=O)c1ccccc1C(=O)OCCCCC ? inactive

Check the results log: what was the call for Nc1cc(Cl)cc(C(=O)O)c1Cl ? inactive

Check the results log: what was the call for OCCCl ? inactive

----------
read-out: Potassium channel subfamily K member 1 (KCNK1), KCNK1 (gene 3775); assay: LTEA_HepaRG_KCNK1: Life Technologies and Expression Analysis (LTEA) Assay for Potassium channel subfamily K member 1 (KCNK1) using HepaRG (AID 2283511); conditions: mRNA level, 48 h; actives raise or lower the signal
Active and inactive are the calls of the source. Rule for the calls: active = hit-call score of the fitted dose curve at least 0.9, where 1 is the maximum; inactive = score below 0.9.

[
  {
    "MOLECULE": "O=C(O)C1C2CCC(O2)C1C(=O)O (stereo not drawn)",
    "outcome": "inactive"
  },
  {
    "MOLECULE": "CCCCC(CC)COC(=O)c1ccc(C(=O)OCC(CC)CCCC)c(C(=O)OCC(CC)CCCC)c1 (stereo not drawn)",
    "outcome": "inactive"
  },
  {
    "MOLECULE": "Nc1ccc([N+](=O)[O-])cc1",
    "outcome": "inactive"
  }
]

Where do the numbers come from? From PubChem BioAssay (EPA / NIEHS).
